System: HepG2 cells
Assay: Mammal cells system transfection with luciferase plasmid (luciferase activity)
Format: cell-based
Settings: FIG. 1b, concentration series, ordinate values standardized to chloroquine
PROPERTY: optimum concentration for promoting transfection, compared to chloroquine

Entry Clc1ccc2c(c1)C(N1CCNCC1)=Nc1ccccc1O2 ; optimum concentration for promoting transfection, compared to chloroquine = smaller

Looking up CNCCCC12CCC(c3ccccc31)c1ccccc12 , I found its optimum concentration for promoting transfection, compared to chloroquine recorded as smaller

The reported value for CN(C)CCCN1c2ccccc2Sc2ccc(Cl)cc21 in terms of optimum concentration for promoting transfection, compared to chloroquine is smaller
